All values here come from patent US20240002391A1.

Provide the recorded pIC50 for the entries that follow.
Target: recombinant DYRK1A kinase (Homo sapiens (Human))
Assay: DYRK1A kinase assay (Ser/Thr 18 peptide Z-lyte FRET)
Details: DYRK1A kinase activity, Z-lyte Ser/Thr 18 peptide, 15 μM ATP; method text calls the value IC50; read-out: EC50 (the source's name)
A value of pIC50 is the negative decimal logarithm of a concentration given in moles per litre.

Q: Would you kindly share the measured pIC50 for `COc1nc(N[C@@H]2C[C@@H]3CN(C(C)=O)C[C@@H]3C2)nn2ccc(-c3ccc4nnn(C)c4c3)c12` ?
Result: 8.47

Q: What about `CNC(=O)c1cnn2ccc(-c3ccn4nc(N[C@H]5CC[C@](C)(OC)CC5)nc(OC)c34)cc12` ?
Result: 9.15

Q: Let us now turn to `CNC(=O)c1cnn2ccc(-c3ccn4nc(N[C@H]5CC[C@@H](OC)CC5)nc(OC)c34)cc12`
Result: 8.46

Q: And then `COc1nc(N[C@H]2CC[C@](C)(O)CC2)nn2ccc(-c3ccn4nccc4c3)c12` , what is it?
Result: 8.47

Q: Another compound: `COc1nc(N[C@@H]2CCN(CCF)C[C@@H]2F)nn2ccc(-c3ccc4nc(C)n(CC(F)F)c4c3)c12`
Result: 8.59

Q: Next compound up: `COc1nc(NC2CCN(CCF)CC2)nn2ccc(-c3ccn4nccc4c3)c12`
Result: 7.84

Q: Same read-out for `CNC(=O)[C@]1(C)C[C@@H](Nc2nc(OC)c3c(-c4ccc5nc(C)n(CC(F)F)c5c4)ccn3n2)C1` ?
Result: 8.85

Q: Lookup `COc1nc(NC2CCC3(CC2)CN(C(C)=O)C3)nn2ccc(-c3ccc4ncnn4c3)c12`
Result: 8.96

Q: Would you mind doing COc1nc(NC2CCC(C)(C#N)CC2)nn2ccc(-c3cnc4nccn4c3)c12 (centres unmarked) as well?
Result: 9.40

Q: Also, `COCCNC(=O)[C@]1(C)C[C@@H](Nc2nc(OC)c3c(-c4ccc5nnn(C)c5c4)ccn3n2)C1` please.
Result: 8.66

Q: Try the compound `COc1nc(N[C@H]2C[C@@H]3CN(C(C)=O)C[C@@H]3C2)nn2ccc(-c3ccc4nccnc4c3)c12`
Result: 9.15

###

Target: recombinant DYRK1A kinase (Homo sapiens (Human), UniProt Q13627)
Test: DYRK1A kinase assay (Ser/Thr 18 peptide Z-lyte FRET)
Conditions: DYRK1A kinase activity, Z-lyte Ser/Thr 18 peptide, 15 μM ATP; method text calls the value IC50; read-out: EC50 (the source's name)
Quantity: pIC50
Please report pIC50 as the negative decimal logarithm of the molar concentration, giving only the number.

Q: Which pIC50 value is on record for `COc1nc(N[C@H]2CCN(C3COC3)C[C@H]2F)nn2ccc(-c3ccc4nnn(CC(F)F)c4c3)c12` ?
Result: 8.89

Q: Then `COc1nc(NC2CCC3(CC2)COC3)nn2ccc(-c3ccc4nccnc4c3)c12` ?
Result: 8.52

Q: Try this molecule too: `c1cnc2cc(-c3ccn4nc(NC5CC6(CCOCC6)C5)nc(OC5COC5)c34)ccc2n1`
Result: 8.32

Q: Please do the same for `COc1nc(N[C@H]2CCN(CCO)C[C@H]2F)nn2ccc(-c3cc(F)c4nc(C)n(C(C)C)c4c3)c12` as well.
Result: 8.96

Q: Moving on to `CCC(=O)N[C@]1(C)C[C@H](Nc2nc(OC)c3c(-c4ccc5nccnc5c4)ccn3n2)C1`
Result: 8.70

Q: Here is the next molecule: `COc1nc(N[C@H]2CC[C@](C)(O)CC2)nn2ccc(-c3ccc4nccn4c3)c12`
Result: 8.89

Q: Also `COCCO[C@H]1CC[C@H](Nc2nc(OC)c3c(-c4ccn5nccc5c4)ccn3n2)CC1` , if possible.
Result: 7.46

Q: Try this molecule next: `COc1nc(NC2CCC3(CC2)CN(C(=O)OC(C)(C)C)C3)nn2ccc(-c3ccc4ncnn4c3)c12`
Result: 7.53

Q: Similarly, `COc1nc(NC2CCOCC2)nn2ccc(-c3ccn4nccc4c3)c12` ?
Result: 7.92

Q: What do you get for `COc1nc(NC2CCN(CC(F)F)CC2)nn2ccc(-c3ccc4nccnc4c3)c12` ?
Result: 8.22

Q: Here is the next molecule: `COc1nc(NC2CCN(C(C)=O)CC2)nn2ccc(-c3ccc4nc(C)n(CC(F)F)c4c3)c12`
Result: 8.80

Q: Same question, `COc1nc(NC2CC3(COC3)C2)nn2ccc(-c3cnc4nccn4c3)c12` this time
Result: 8.89

Q: Now consider `COc1nc(N[C@H]2CCN(C)C[C@H]2F)nn2ccc(-c3ccc4nnn(CC(F)F)c4c3)c12` .
Result: 8.77

Q: Follow-up item: `CNC(=O)[C@]1(C)C[C@H](Nc2nc(OC)c3c(-c4ccc5nnn(C)c5c4)ccn3n2)C1`
Result: 8.06

###

Provide the recorded pIC50 for the entries that follow.
Target: recombinant DYRK1A kinase (Homo sapiens (Human), UniProt Q13627)
Assay: DYRK1A kinase assay (Ser/Thr 18 peptide Z-lyte FRET)
Conditions: DYRK1A kinase activity, Z-lyte Ser/Thr 18 peptide, 15 μM ATP; method text calls the value IC50; read-out: EC50 (the source's name)
// field semantics: pIC50 = negative decimal log of concentration (mol/L)

Q: Quick one: pIC50 for `COc1nc(N[C@H]2C[C@@](C)(NC(C)=O)C2)nn2ccc(-c3ccc4nccnc4c3)c12` ?
Result: 8.96

Q: `CC[C@]1(O)CC[C@H](Nc2nc(OC)c3c(-c4ccc5ncnn5c4)ccn3n2)CC1` , same question.
Result: 8.43

Q: One more compound: `COc1nc(N[C@H]2C[C@H](C(C)(C)O)C2)nn2ccc(-c3ccc4nccnc4c3)c12`
Result: 8.27
